tested on: TO-3-N3 (biotin conjugate); experiment: pull-down binding Z-score (relative to library population); higher = stronger binding; conditions: RNA library: Library-2
measured endpoint: pull-down binding Z-score
Reply with just the number.

These recorded examples may help you get a feel for the data.
CCUUGCCUGUGGCAAGACCACUUCGGUUCAAGG [hsa-mir-4295]
0.0272
GAGGUGAGCAGGAUACUUACCUG [U1snRNP5ss-16]
-0.342
UUUCUGUUGUCUAAAAGAAAAGAAA [hsa-mir-527]
-0.325

Now for another entry.
*Q* Give its pull-down binding Z-score value. Item: UGAACCACAAAUCA [SHAPE_invitro_SARS-CoV-2_Motif_451]
*A* -0.745
